Measured On: T1, recombinant human IGF-II (Insulin-like Growth Factor II) (human, UniProt P01344 25-91, biotinylated (Biotinyl-IGF-II, GroPep) where immobilised in SPR, site not stated; not biotinylated in ITC and as SPR analyte)
T1 construct: also called IGF2; IGF-2
Assay Overview: SPR, IGF-II immobilised, steady state
Known pKd of a selection of binders
API: returns pKd as number; meaning -log10 of concentration in mol/L.

These recorded examples may help you get a feel for the data.
- Binder: "IGF2R domain 11 with phenylalanine at position 1544 (E1544F) (receptor) NEHDDCQVTNPSTGHLFDLSSLSGRAGFTAAYSFKGLVYMSICGENENCPPGVGACFGQTRISVGKANKRLRYVDQVLQLVYKDGSPCPSKSGLSYKSVISFVCRPEAGPTNRPMLISLDKQTCTLFFSWHTPLACEQATHHHHHH"
  Result Type: "pKd"
  Result: 7.25
- Binder: "IGF2R domain 11 with asparagine at position 1544 (E1544N) (receptor) NEHDDCQVTNPSTGHLFDLSSLSGRAGFTAAYSNKGLVYMSICGENENCPPGVGACFGQTRISVGKANKRLRYVDQVLQLVYKDGSPCPSKSGLSYKSVISFVCRPEAGPTNRPMLISLDKQTCTLFFSWHTPLACEQATHHHHHH"
  Result Type: "pKd"
  Result: 6.93
- Binder: "IGF2R domain 11 E1544K (amino acids 1511-1650, C-terminal His6 tag, from Pichia pastoris) (receptor, also called enhanced mutant) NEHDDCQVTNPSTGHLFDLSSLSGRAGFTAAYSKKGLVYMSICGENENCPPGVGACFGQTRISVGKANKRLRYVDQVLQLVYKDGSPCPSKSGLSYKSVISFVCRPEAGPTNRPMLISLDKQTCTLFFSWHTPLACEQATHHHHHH"
  Result Type: "pKd"
  Result: 7.77

Prompt: pKd for IGF2R domain 11 with histidine at position 1544 (E1544H) (receptor) NEHDDCQVTNPSTGHLFDLSSLSGRAGFTAAYSHKGLVYMSICGENENCPPGVGACFGQTRISVGKANKRLRYVDQVLQLVYKDGSPCPSKSGLSYKSVISFVCRPEAGPTNRPMLISLDKQTCTLFFSWHTPLACEQATHHHHHH ?
Completion: 7.47
